Origin of the recorded values: paper PMC5823469

- study_system: 5-HT7Egran2 (Echinococcus canadensis)
- Sequence (A0A482LXK0 entry or part of it): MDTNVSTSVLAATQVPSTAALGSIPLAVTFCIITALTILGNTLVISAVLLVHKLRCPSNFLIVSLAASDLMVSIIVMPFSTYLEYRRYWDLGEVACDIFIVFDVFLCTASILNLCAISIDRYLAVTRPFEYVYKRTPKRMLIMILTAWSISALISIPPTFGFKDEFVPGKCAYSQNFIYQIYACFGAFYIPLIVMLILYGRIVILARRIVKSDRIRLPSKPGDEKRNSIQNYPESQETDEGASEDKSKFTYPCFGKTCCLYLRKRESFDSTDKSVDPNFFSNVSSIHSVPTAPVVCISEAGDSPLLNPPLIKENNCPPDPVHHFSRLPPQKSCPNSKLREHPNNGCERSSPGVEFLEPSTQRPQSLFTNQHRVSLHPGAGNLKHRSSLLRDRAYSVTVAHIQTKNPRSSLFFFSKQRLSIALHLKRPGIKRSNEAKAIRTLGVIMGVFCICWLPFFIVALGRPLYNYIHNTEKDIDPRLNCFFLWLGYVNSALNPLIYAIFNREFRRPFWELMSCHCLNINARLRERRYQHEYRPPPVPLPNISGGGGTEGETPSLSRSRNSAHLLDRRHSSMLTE
- assay_text: cell-based
- Format: cell-based, Echinococcus granulosus
Consider the following molecules; for each one, report its EC50.

>>> print(df.to_string())
                           molecular_string  observed_measurement
0  CN1C[C@H](C(=O)N[C@]2(C)O[C@@]3(O)[C@@H]4CCCN4C(=O)[C@H](Cc4ccccc4)N3C2=O)C=C2c3cccc4[nH]cc(c34)C[C@H]21                234 nM

// next item, EC50 requested
Prompt line: // fetch EC50 given entry NCCc1c[nH]c2ccccc12
Response line: ~800 nM

====

- study_system: 5-HT7Egran1 (Echinococcus canadensis, UniProt A0A482LU10)
- Sequence (A0A482LU10 entry or part of it): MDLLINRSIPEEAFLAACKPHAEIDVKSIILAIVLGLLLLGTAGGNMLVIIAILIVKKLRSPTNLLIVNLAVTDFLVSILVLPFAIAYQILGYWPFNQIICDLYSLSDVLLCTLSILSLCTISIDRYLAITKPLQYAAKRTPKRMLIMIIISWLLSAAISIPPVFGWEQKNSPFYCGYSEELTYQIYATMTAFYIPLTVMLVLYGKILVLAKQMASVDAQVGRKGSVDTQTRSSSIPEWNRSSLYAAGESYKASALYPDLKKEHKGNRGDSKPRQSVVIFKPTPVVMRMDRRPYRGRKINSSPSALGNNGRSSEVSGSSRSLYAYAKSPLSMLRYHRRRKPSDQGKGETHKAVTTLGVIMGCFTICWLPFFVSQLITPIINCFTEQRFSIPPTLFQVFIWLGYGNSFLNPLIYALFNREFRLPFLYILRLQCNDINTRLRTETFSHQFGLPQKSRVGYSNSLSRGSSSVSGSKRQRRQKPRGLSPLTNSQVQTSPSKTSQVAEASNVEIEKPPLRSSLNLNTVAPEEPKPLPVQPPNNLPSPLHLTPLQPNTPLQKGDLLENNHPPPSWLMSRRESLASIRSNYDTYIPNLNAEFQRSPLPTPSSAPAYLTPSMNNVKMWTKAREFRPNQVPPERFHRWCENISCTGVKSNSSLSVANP
- assay_text: cell-based
readout_type: pEC50
Numbers only, as −log10 of the molar value.

In [3]: df
Out[3]:
                                   molecule  readout_type  observed_measurement
0  CN1C[C@H](C(=O)N[C@]2(C)O[C@@]3(O)[C@@H]4CCCN4C(=O)[C@H](Cc4ccccc4)N3C2=O)C=C2c3cccc4[nH]cc(c34)C[C@H]21         pEC50                  6.54
1  CCN(CC)C(=O)[C@@H]1C=C2c3cccc4[nH]cc(c34)C[C@H]2N(C)C1 [LSD, Lysergic acid diethylamide]         pEC50                  7.46

Query molecule follows.
Prompt line: Determine from records and report pEC50 for NCCc1c[nH]c2ccc(O)cc12 [5-HT, 5-hydroxytryptamine]
Response line: 6.77

====

- study_system: 5-HT7Egran2 (Echinococcus canadensis)
- assay_text: cell-based
- Type: cell-based, Echinococcus granulosus
readout_type: pIC50
One number for each entry, as −log10 of the molar value.

Prompt line: Respond only with pIC50 recorded for CCN(CC)C(=O)[C@@H]1C=C2c3cccc4[nH]cc(c34)C[C@H]2N(C)C1 [LSD, Lysergic acid diethylamide]
Response line: 8.54

====

- study_system: 5-HT7Egran2 (Echinococcus canadensis)
- assay_text: cell-based
- Assay type: cell-based, Echinococcus granulosus
- test_settings: HEK-293 cells expressing 5-HT7Egran2, IBMX 200μM; read-out: EC50 for evoked cAMP production
readout_type: pEC50
Give bare numbers, as −log10 of the molar value.

Prompt line: Please respond with reported pEC50 (system 5-HT7Egran2 (Echinococcus canadensis)) for NCCc1c[nH]c2ccc(O)cc12 [5-HT, 5-hydroxytryptamine] .
Response line: 9.27

====

- study_system: 5-HT7Mco1 (Mesocestoides corti, UniProt A0A482LRJ4)
- Sequence (A0A482LRJ4 entry or part of it): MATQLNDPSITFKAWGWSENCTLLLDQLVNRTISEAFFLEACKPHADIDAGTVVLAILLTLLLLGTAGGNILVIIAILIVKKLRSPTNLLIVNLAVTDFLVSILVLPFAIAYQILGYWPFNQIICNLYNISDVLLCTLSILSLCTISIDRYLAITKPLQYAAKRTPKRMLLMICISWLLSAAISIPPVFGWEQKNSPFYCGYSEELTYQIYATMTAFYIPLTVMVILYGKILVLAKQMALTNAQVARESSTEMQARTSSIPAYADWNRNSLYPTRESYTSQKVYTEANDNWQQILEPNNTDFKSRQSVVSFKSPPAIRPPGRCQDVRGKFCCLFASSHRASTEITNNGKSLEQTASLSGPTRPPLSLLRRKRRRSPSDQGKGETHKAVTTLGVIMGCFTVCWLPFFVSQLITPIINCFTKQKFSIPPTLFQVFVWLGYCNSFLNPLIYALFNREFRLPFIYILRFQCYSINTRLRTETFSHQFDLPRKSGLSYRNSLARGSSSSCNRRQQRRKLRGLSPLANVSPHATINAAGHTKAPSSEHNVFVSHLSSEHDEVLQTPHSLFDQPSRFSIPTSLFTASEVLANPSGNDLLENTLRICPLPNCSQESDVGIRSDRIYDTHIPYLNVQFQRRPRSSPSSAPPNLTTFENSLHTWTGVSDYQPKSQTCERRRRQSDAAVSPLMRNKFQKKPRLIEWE
- assay_text: cell-based
readout_type: EC50 (nM)
Answers are plain numbers, in nM.

// below: answered molecules
>>> print(df.to_string())
                                   molecule  readout_type  measurement_unit  observed_measurement
0  CCN(CC)C(=O)[C@@H]1C=C2c3cccc4[nH]cc(c34)C[C@H]2N(C)C1 [LSD, Lysergic acid diethylamide]          EC50                nM                   4.4
1  NCCc1c[nH]c2ccc(O)cc12 [5-HT, 5-hydroxytryptamine]          EC50                nM                 0.255

Prompt line: Would you please give the reported EC50 of CN1C[C@H](C(=O)N[C@]2(C)O[C@@]3(O)[C@@H]4CCCN4C(=O)[C@H](Cc4ccccc4)N3C2=O)C=C2c3cccc4[nH]cc(c34)C[C@H]21 [ergotamine] with 5-HT7Mco1 (Mesocestoides corti, UniProt A0A482LRJ4)?
Response line: 354
